test: Clearance in African green monkey blood at 25 mg/kg administered as iv infusion twice daily for 7 consecutive days measured on day 1 by LC-MS/MS analysis
Format: ADME, organism-based
study_conditions: chlorocebus aethiops
measured_attribute: clearance (mL/min/kg)
Answers are plain numbers, in mL/min/kg.

Notebook: CN[C@@H]1[C@@H](O)[C@@H](O[C@@H]2[C@@H](O)[C@H](O[C@H]3OC(CNCCO)=CC[C@H]3N)[C@@H](N)C[C@H]2NC(=O)[C@@H](O)CCN)OC[C@]1(C)O , clearance read as 2.17

---

test: Volume of distribution at steady state in African green monkey blood at 35 mg/kg administered as iv infusion twice daily for 7 consecutive days measured on day 7 by LC-MS/MS analysis
Format: ADME, organism-based
study_conditions: chlorocebus aethiops, read-out: Vdss
measured_attribute: Vd (L/kg)
Answers are plain numbers, in L/kg.

Notebook: CN[C@@H]1[C@@H](O)[C@@H](O[C@@H]2[C@@H](O)[C@H](O[C@H]3OC(CNCCO)=CC[C@H]3N)[C@@H](N)C[C@H]2NC(=O)[C@@H](O)CCN)OC[C@]1(C)O [PLAZOMICIN] , Vd read as 0.31
